The following compounds are listed with their measured GI50 values.
Test system: SF-539
Experiment: Antiproliferative activity against human SF539 cells after 96 hrs by WST-1 assay
Format: functional
Details: SF-539, 96 h

CCc1cc2c(cc1OS(N)(=O)=O)CC[C@@H]1[C@@H]2CC[C@]2(C)[C@@H](CS(C)(=O)=O)CC[C@@H]12: < 10 nM
COc1cc2c(cc1O)CC[C@@H]1[C@@H]2CC[C@]2(C)[C@@H](NS(C)(=O)=O)CC[C@@H]12: > 100000 nM
CCc1cc2c(cc1OS(N)(=O)=O)CC[C@@H]1[C@@H]2CC[C@]2(C)[C@@H](OS(C)(=O)=O)CC[C@@H]12: < 10 nM

Next:
Req: Recorded GI50 for "CCc1cc2c(cc1OS(N)(=O)=O)CC[C@@H]1[C@@H]2CC[C@]2(C)[C@@H](OS(N)(=O)=O)CC[C@@H]12" with SF-539, please?
Resp: < 10 nM

----------
System: SN12C
Experiment: Antiproliferative activity against human SN12C cells after 96 hrs by WST-1 assay
Type: functional
QUANTITY KIND: GI50

Known GI50 results, listed for orientation:
COc1cc2c(cc1O)CC[C@@H]1[C@@H]2CC[C@]2(C)[C@@H](NS(C)(=O)=O)CC[C@@H]12: > 100 µM
CCc1cc2c(cc1OS(N)(=O)=O)CC[C@@H]1[C@@H]2CC[C@]2(C)[C@@H](CS(C)(=O)=O)CC[C@@H]12: < 0.01 µM

Req: Recorded GI50 for "CCc1cc2c(cc1OS(N)(=O)=O)CC[C@@H]1[C@@H]2CC[C@]2(C)[C@@H](OS(C)(=O)=O)CC[C@@H]12" with SN12C, please?
Resp: < 0.01 µM

Origin of measurements: ChEMBL document CHEMBL1156957
